Source: paper PMC9352467

assay: Plasma pharmacokinetic studies; assay type: in vivo, Sprague-Dawley (SD) rats; details: male, Sprague-Dawley, rat, po, 3 mg/kg
quantityMeasured: half-life (h)

# givenSmiles, measured
records = [
    ("NS(=O)(=O)OC[C@@H]1C[C@@H](n2ccc3c(N[C@H]4CCc5ccccc54)ncnc32)C[C@@H]1O", 5.5),
]

###

tested on: MV-4-11; assay: Cell viability assay; format: cell-based; settings: Homo sapiens, MV4-11, 72 h, read-out: IC50 (mean ± SD)
quantityMeasured: IC50 (nM)

# givenSmiles, measured
rows = [
    ("NS(=O)(=O)OC[C@@H]1C[C@@H](n2ccc3c(N[C@H]4CCc5ccccc54)ncnc32)C[C@@H]1O", 121),
]
